Value source: paper PMC4336329

target: human ether-à-go-go-related gene (hERG) potassium channel (human, UniProt Q12809); experiment: primary screen, population patch clamp on CHO cells stably expressing hERG; higher = less effect of the substance
Sequence (Q12809 whole entry, looked up): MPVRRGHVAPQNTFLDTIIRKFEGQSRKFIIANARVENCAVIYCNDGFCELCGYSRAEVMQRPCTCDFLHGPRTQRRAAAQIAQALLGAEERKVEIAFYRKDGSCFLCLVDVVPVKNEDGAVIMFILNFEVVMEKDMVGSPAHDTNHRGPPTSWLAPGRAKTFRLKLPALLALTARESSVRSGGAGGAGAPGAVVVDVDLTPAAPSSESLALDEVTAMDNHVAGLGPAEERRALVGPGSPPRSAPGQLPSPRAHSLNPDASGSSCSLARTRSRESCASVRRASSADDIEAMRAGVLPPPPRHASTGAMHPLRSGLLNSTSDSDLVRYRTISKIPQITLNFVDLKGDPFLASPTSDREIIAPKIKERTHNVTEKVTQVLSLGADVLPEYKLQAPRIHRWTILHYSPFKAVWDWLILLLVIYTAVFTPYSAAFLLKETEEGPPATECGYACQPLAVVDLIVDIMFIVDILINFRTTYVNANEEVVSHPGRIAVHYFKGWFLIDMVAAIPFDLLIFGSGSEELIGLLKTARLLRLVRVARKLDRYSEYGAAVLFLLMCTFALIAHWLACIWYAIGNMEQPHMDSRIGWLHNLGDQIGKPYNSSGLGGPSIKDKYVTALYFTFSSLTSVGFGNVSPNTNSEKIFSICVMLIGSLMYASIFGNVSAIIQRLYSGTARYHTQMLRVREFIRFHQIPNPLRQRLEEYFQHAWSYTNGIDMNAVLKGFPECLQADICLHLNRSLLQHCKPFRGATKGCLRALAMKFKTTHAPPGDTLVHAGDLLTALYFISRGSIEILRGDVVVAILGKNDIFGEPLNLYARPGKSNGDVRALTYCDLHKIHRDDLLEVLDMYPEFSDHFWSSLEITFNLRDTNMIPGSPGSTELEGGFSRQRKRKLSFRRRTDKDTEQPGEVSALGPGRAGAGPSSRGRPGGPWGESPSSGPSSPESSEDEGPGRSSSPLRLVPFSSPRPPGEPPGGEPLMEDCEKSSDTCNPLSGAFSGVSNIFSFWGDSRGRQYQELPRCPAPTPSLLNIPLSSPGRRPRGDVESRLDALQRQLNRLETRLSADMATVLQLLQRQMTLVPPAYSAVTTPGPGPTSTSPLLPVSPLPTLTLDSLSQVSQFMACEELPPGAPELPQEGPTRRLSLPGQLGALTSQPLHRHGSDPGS
The whole screen tested about 310,000 compounds, of which about 2,200 (0.71%) showed an effect of 50% or more. Effects have a minus sign here. The entries come from a sample that favours strong results as a whole.
Assay Metric: hERG current change (%, negative = inhibition) at 1uM (%)
Provide the reading as a plain figure in %.

Smiles Text | Value Measured
COc1ccc(C)cc1NC(=O)CCN1CCN(C/C=C/c2ccccc2)CC1 | -70.9
O=C(O)c1cccc(N/N=C(\N=Nc2ccccc2)c2ccccc2)c1 | 16.7
COc1ccc(OCC(=O)Nc2c(C(=O)N3CCC(N4CCCCC4)CC3)oc3ccccc23)cc1 | -82.8
CCOc1ccc(C(=O)Nc2c(C(=O)N3CCC(N4CCCCC4)CC3)oc3ccccc23)cc1 | -82

Let us examine a further case.
IN: Name the recorded hERG current change (%, negative = inhibition) at 1uM for O=C(Nc1c(C(=O)N2CCC(N3CCCCC3)CC2)oc2ccccc12)c1ccc(F)cc1 .
OUT: -47.7

* * *

Below, each entry is listed alongside its reported hERG current change (%, negative = inhibition) at 1uM.
target: human ether-à-go-go-related gene (hERG) potassium channel (human, UniProt Q12809); assay: primary screen, population patch clamp on CHO cells stably expressing hERG; higher = less effect of the substance
Among all 310,000 compounds or so, about 2,200 (0.71%) showed an effect of 50% or more. The effect is printed as a negative number. For the sample, strong results were picked, then their nearest neighbours and some compounds at random.
Lab book: enter the figure in %, no units written.

Compound | U | Value Measured
COCCC(=O)N1CCC(Oc2ccc(C(=O)N3C[C@@H]4CCC[C@H]3C4)cc2)CC1 | % | 5.49
Fc1ccccc1NC(=S)N1CCN(C/C=C/c2ccccc2)CC1 | % | 7.89
OCCC1CN(Cc2cccn2-c2cccnc2)CCN1Cc1ccccc1 (stereo not drawn) | % | -7.57

IN: Please look up its hERG current change (%, negative = inhibition) at 1uM: CN(CC(=O)Nc1ccccc1Br)C(=O)c1sccc1-c1ccccc1
OUT: -0.469

IN: What do you have for COc1cccc(CN2CCN(Cc3cccn3-c3cccnc3)CC2CCO)c1 (stereo not drawn) ?
OUT: -62.2

IN: Again, but for c1ccc(Nc2nn[nH]n2)cc1
OUT: 10.1

IN: Next entry: Cl.O=C(CCN1CCN(C/C=C/c2ccccc2)CC1)Nc1ccccc1Cl
OUT: -47.6

IN: Now try CCOc1ccc(N(CC(=O)Nc2ccc(F)c(F)c2)S(=O)(=O)c2c(C)noc2C)cc1 .
OUT: 2.37

IN: Next record, please: OCCC1CN(Cc2cccn2-c2ncccn2)CCN1Cc1ccc(F)cc1 (stereo not drawn)
OUT: -74.7

* * *

target: human ether-à-go-go-related gene (hERG) potassium channel (human); assay: primary screen, population patch clamp on CHO cells stably expressing hERG; higher = less effect of the substance
About 2,200 (0.71%) of roughly 310,000 compounds showed an effect of 50% or more. The effect is printed as a negative number. Shown is part of a subset that was picked to be rich in strong results.
Let's look at some molecules and their measured hERG current change (%, negative = inhibition) at 1uM.
Numbers only here, please. The scale is %.

Use these answered entries as a reference point.
Molecule | Value Measured
Cc1cccc(/C=N/n2c(-c3ccccn3)n[nH]c2=S)c1 | 14.4
CC(=O)N1CCN(CCN=CC2=C(O)CC(c3cccs3)CC2=O)CC1 (stereo not shown) | 10.4
CC(C)C(=O)N1CCN(CCN=CC2=C(O)CC(c3ccco3)CC2=O)CC1 (stereo not shown) | 14

// below: hERG current change (%, negative = inhibition) at 1uM requested for another molecule
IN: Observed hERG current change (%, negative = inhibition) at 1uM on human ether-à-go-go-related gene (hERG) potassium channel (human) for COC(=O)c1[nH]c2ccc(C)cc2c1NC(=O)C(C)N1CCN(C2CCCCC2)CC1 (stereo not shown) , please.
OUT: -81
